Molecular target: human GPR40 (Homo sapiens)
Construct: expressed in transfected cells
Sequence (O14842 whole entry): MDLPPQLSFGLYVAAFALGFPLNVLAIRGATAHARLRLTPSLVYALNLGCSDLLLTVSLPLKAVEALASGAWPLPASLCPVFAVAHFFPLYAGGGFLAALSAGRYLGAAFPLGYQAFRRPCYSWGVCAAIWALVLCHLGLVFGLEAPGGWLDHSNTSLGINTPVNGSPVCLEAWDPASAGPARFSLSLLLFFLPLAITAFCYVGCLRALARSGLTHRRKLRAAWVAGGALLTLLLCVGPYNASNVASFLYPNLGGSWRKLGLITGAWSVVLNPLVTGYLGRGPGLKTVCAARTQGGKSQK
Test: Evaluation of human GPR40 agonist activity with increase in intracellular Ca2+ concentration as an index (FLIPR)
Assay type: cell-based
Settings: test compound 1 μM; CHO(dhfr−) cells stably expressing human GPR40; 100% = 10 μM compound of Example 153, 0% = DMSO
Please respond with reported activation at 1 µM for every item in the list.
Please give a number only; it is taken to be in %.

// returns reported activation at 1 µM for input COc1ccc(C(=O)N(CC(C)(C)C)c2cc(C)ncn2)c(N2CCC(COc3cc(C(CC(=O)O)C4CC4)ccn3)CC2)c1 (stereo not shown)
98

Continue with COc1ccc(C(=O)N(CC(C)(C)C)C2CCCN(CC(F)(F)F)C2)c(N2CCC(COc3cc(C(CC(=O)O)C4CC4)ccn3)CC2)c1 (stereo not shown)
85

Please answer likewise for COc1ccc(C(=O)N(c2ccccn2)C(C)C)c(N2CCC(COc3cc(C(CC(=O)O)C4CC4)ccn3)CC2)c1 (stereo not shown)
82

Another molecule to look at: CCc1ccc(C(=O)N(CC(C)(C)C)c2ccccn2)c(N2CCC(COc3cccc(C(CC(=O)O)C4CC4)c3)CC2)n1 (stereo not shown)
52

And what about the molecule COc1ccc(C(=O)N2CCOCC2c2ccccc2)c(N2CCC(COc3cc(C(CC(=O)O)C4CC4)ccn3)CC2)c1 (stereo not shown) ?
89

Now the molecule CSc1ccc(C(=O)N(CC(C)(C)C)c2cccc(C)n2)c(N2CCC(COc3cc(C(CC(=O)O)C4CC4)ccn3)CC2)c1 (stereo not shown)
90

Would you mind doing COc1ccc(C(=O)N(CCC#N)c2ccccc2)c(N2CCC(COc3cccc(C(CC(=O)O)C4CC4)c3)CC2)c1 (stereo not shown) as well?
73

---

Target: human GPR40 (Homo sapiens)
Construct: expressed in transfected cells
Assay: Evaluation of human GPR40 agonist activity with increase in intracellular Ca2+ concentration as an index (FLIPR)
Assay type: cell-based
Details: test compound 1 μM; CHO(dhfr−) cells stably expressing human GPR40; 100% = 10 μM compound of Example 153, 0% = DMSO
readout: activation at 1 µM (%)
# value in %; strip the unit string

Need activation at 1 µM of COc1ccc(C(=O)N(CC(F)F)c2ccccn2)c(N2CCC(COc3cc(C(CC(=O)O)C4CC4)ccn3)CC2)c1 (stereo not drawn) [Example 137] , thanks.
96

Subsequent entry: COc1ncc(C(=O)N(CC(C)(C)C)c2cccc(C)n2)c(N2CCC(COc3cc(C(CC(=O)O)C4CC4)ccn3)CC2)n1 (stereo not drawn) [Example 287]
82

Try COc1cc(F)c(C(=O)N(CC(C)(C)C)c2cccc(C)n2)c(N2CCC(COc3cc(C(CC(=O)O)C4CC4)ccn3)CC2)c1 (stereo not drawn) [Example 251] next.
91

Cool, now COc1ccc(C(=O)N(CC2CCOCC2)c2ccccn2)c(N2CCC(COc3cc(C(CC(=O)O)C4CC4)ccn3)CC2)c1 (stereo not drawn) [Example 196]
81

// same read-out, input: COc1ccc(C(=O)N(CC(C)(C)C)c2cncc(C)c2)c(N2CCC(COc3cc(C(CC(=O)O)C4CC4)ccn3)CC2)c1 (stereo not drawn) [Example 231]
92

What do you have for COc1ccc(C(=O)N(CC(F)(F)F)c2ccnc(C)c2)c(N2CCC(COc3cc(C(CC(=O)O)C4CC4)ccn3)CC2)c1 (stereo not drawn) [Example 163] ?
89
